B1: TEKT4 (parent)
chain: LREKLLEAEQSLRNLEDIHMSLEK

variants of: B1; assay: protein stability index of a GFP-peptide fusion (GPS, HEK-293T) (PSI 1-6); higher = more stable; settings: c terminus: a fixed tail appended;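 further: lentivirally expressed fusions sorted by FACS into six bins by GFP to DsRed ratio, PSI derived from sequencing read proportions per bin multiplied by bin number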
Returns one of Criterion met or Criterion not met; Criterion met when protein stability index is >= 3.

Does protein stability index meet or surpass 3 for "LREKLLEAEQSLRNLEDIHMPLEK" ?
Criterion not met

Does protein stability index meet or surpass 3 for "LREKLLEAEQFLRNLEDIHMSLEK" ?
Criterion not met

Does protein stability index meet or surpass 3 for "LREKLLEAEQSLRNLEDIHMSQEK" ?
Criterion not met

Does protein stability index meet or surpass 3 for "LREKLLEAEQSLRNLEDIHMSLVK" ?
Criterion not met

Does protein stability index meet or surpass 3 for "LREKLLEAEQSLRNLEDIHMRLEK" ?
Criterion met

Does protein stability index meet or surpass 3 for "LREKLLEAEQSLRNLEDIHMSLEI" ?
Criterion not met

Does protein stability index meet or surpass 3 for "LFEKLLEAEQSLRNLEDIHMSLEK" ?
Criterion not met

Does protein stability index meet or surpass 3 for "LREKLLEAEQSLRNLEDIHISLEK" ?
Criterion not met

Does protein stability index meet or surpass 3 for "LRGKLLEAEQSLRNLEDIHMSLEK" ?
Criterion not met

Does protein stability index meet or surpass 3 for "LRLKLLEAEQSLRNLEDIHMSLEK" ?
Criterion not met

Does protein stability index meet or surpass 3 for "LREKLLEALQSLRNLEDIHMSLEK" ?
Criterion not met

Does protein stability index meet or surpass 3 for "LREKLLEAEQSLRNLEDIHFSLEK" ?
Criterion not met

Does protein stability index meet or surpass 3 for "LREKLLEAEQSLRNFEDIHMSLEK" ?
Criterion met

Does protein stability index meet or surpass 3 for "LREKLLEIEQSLRNLEDIHMSLEK" ?
Criterion not met

Does protein stability index meet or surpass 3 for "LREKLLEAEQSLRNLEDITMSLEK" ?
Criterion not met

Does protein stability index meet or surpass 3 for "LREKLLEAEQSLRNLEDIHMSLEF" ?
Criterion not met

Does protein stability index meet or surpass 3 for "LREKVLEAEQSLRNLEDIHMSLEK" ?
Criterion not met

Does protein stability index meet or surpass 3 for "LREKLFEAEQSLRNLEDIHMSLEK" ?
Criterion not met

Does protein stability index meet or surpass 3 for "LREKLLEAEQSLSNLEDIHMSLEK" ?
Criterion not met

Does protein stability index meet or surpass 3 for "LREKLLEAEQSLFNLEDIHMSLEK" ?
Criterion not met

Does protein stability index meet or surpass 3 for "LREKLHEAEQSLRNLEDIHMSLEK" ?
Criterion met

Does protein stability index meet or surpass 3 for "LREKLLEAKQSLRNLEDIHMSLEK" ?
Criterion met
